Each item that follows carries a reported pIC50.
Test system: human hepatocellular carcinoma cell line HepG-2
TEST PROTOCOL: MTT assay, inhibition of tumor cell growth (HepG2)
Format: cell-based
TEST PARAMETERS: 72 hours incubation, read-out: IC50 on the tumor cells HepG2
Method: human hepatocellular carcinoma cell line HepG-2, human lung adenocarcinoma epithelial cell line A549 Tumor cells were seeded in RPM11640 medium containing 10% calf serum, incubated at 37° C., 5% CO2 in CO2 incubator, and passaged every 2-3 days. […] The cells in logarithmic growth phase were selected, centrifuged, counted, and formulated into a cell suspension (2.5×10^4/ml) with RPMI1640 medium containing 10% calf serum. […] After incubating for 72 hours, the viability of cells was measured by MTT assay. […]
Scale: pIC50 equals -log10([C]), with [C] in mol/L.

Consider the reported pIC50 for these compounds:
COMPOUND: Cc1ccc2c(c1)C(=C1Oc3ccccc3C1=NO)C(=O)N2C(C)C [Compound 37]
READING: 4.39
//
COMPOUND: CCN1C(=O)C(=C2Oc3ccccc3C2=O)c2c1ccnc2C [Compound 65]
READING: 4.40
//
COMPOUND: O=C1C(=C2C(=O)N(Cc3ccccc3)c3ccccc32)Oc2ccccc21 [Compound 14, N1-benzyl-1′-oxo-indirubin]
READING: 4.62
//
COMPOUND: CON=C1C(=C2C(=O)N(Cc3ccccc3)c3ccccc32)Oc2ccccc21 [Compound 56]
READING: 5.57

// next item, pIC50 requested
Summary line: CC(C)N1C(=O)C(=C2Oc3ccccc3C2=O)c2ccccc21 [Compound 8] , human hepatocellular carcinoma cell line HepG-2, reported pIC50 = 4.49

---

Tested on: human hepatocellular carcinoma cell line HepG-2
TEST PROTOCOL: MTT assay, inhibition of tumor cell growth (HepG2)
Type: cell-based
TEST PARAMETERS: 72 hours incubation, read-out: IC50 on the tumor cells HepG2
Reported pIC50 values follow for various compounds
A value of pIC50 is the negative decimal logarithm of a concentration given in moles per litre.

Sample records with pIC50:
COMPOUND: CCN1C(=O)C(=C2Oc3ccc(Cl)cc3C2=NO)c2cc(Cl)ccc21 [Compound 45]
ASSAY TARGET: human hepatocellular carcinoma cell line HepG-2
pIC50: 5.44
--
COMPOUND: CN1C(=O)C(=C2C(=O)Oc3ccccc32)c2cnccc21 [Compound 123]
ASSAY TARGET: human hepatocellular carcinoma cell line HepG-2
pIC50: 5.04
--
COMPOUND: CON=C1C(=C2C(=O)N(C(C)C)c3ccc(C)cc32)Oc2ccccc21 [Compound 55]
ASSAY TARGET: human hepatocellular carcinoma cell line HepG-2
pIC50: 5.40

Here is the next item to consider.
So for CC(C)N1C(=O)C(=C2Oc3ccccc3C2=O)c2ccc(Cl)cc21 [Compound 12] , the logged pIC50 turned out to be 4.59

---

Test system: human hepatocellular carcinoma cell line HepG-2
TEST PROTOCOL: MTT assay, inhibition of tumor cell growth (HepG2)
Format: cell-based
TEST PARAMETERS: 72 hours incubation, read-out: IC50 on the tumor cells HepG2
// pIC50 lookup, one value per entry
# pIC50 is unitless: minus log10 of the molar concentration; print number only

O=C1C(=C2Oc3ccccc3C2=NO)c2ccccc2N1C1OC(CO)C(O)C1O (stereo not shown) yielded pIC50 of 4.68

Documented pIC50 of CC(C)N1C(=O)C(=C2Oc3ccccc3C2=NO)c2ccc(Cl)cc21 : 4.50

Note to self: pIC50 recorded for CCN1C(=O)C(=C2Oc3ccc(Cl)cc3C2=O)c2ccccc21 was 5.10

Form field pIC50, entry CCN1C(=O)C(=C2Oc3c(Cl)cccc3C2=O)c2cccnc21 [Compound 85] : 4.73

Notebook: CCN1C(=O)C(=C2C(=O)Oc3ccccc32)c2ccccc21 , pIC50 read as 5.04

CCN1C(=O)C(=C2Oc3ccccc3C2=O)c2cc(Cl)ccc21 yielded pIC50 of 4.06

The compound identified as CCN1C(=O)C(=C2Oc3ccccc3C2=NOC)c2cc(F)ccc21 registered its pIC50 at 5.43

response.value for O=C1C(=C2C(=O)N(Cc3ccccc3)c3ccc(Cl)cc32)Oc2ccccc21 (field: pIC50) = 4.21

The reported value for O=C1Nc2ccccc2C1=C1Oc2ccccc2C1=NO in terms of pIC50 is 5.30

// recorded pIC50 for CC(C)N1C(=O)C(=C2Oc3ccc(Cl)cc3C2=O)c2cc(Cl)ccc21 : 5.16

// data source = patent US9868734B2
